- Target Desc: IL-13 (Homo sapiens (Human), UniProt P35225 35-146, limits assumed)
- Sequence (P35225 35-146 limits assumed): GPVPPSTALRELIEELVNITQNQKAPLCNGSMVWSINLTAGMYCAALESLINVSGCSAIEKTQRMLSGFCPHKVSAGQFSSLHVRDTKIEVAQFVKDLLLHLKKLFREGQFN
- Assay Info: Biacore
The following binders are listed with their measured kon values.
Reply numerically in M⁻¹ s⁻¹, unit not repeated.

Examples with answers:
>  <Binder>
M477 (antibody, V domains shown, anti-IL-13, human IgG1) VH: QVTLKESGPVLVKPTETLTLTCTVSGFSLSTYGMGVGWIRQPPGKALEWLAHIWWDDVKRYNPALKSRLTISKDTSKSQVVLTMTNMDPVDTATYYCARMGSDYDVWFDYWGQGTLVTVSS VL: EIVLTQSPATLSLSPGERATLSCRASKSISKYLAWYQQKPGQAPRLLIYSGSTLQSGIPARFSGSGSGTDFTLTISSLEPEDFAVYYCQQHSSGPYTFGQGTKLEIK

>  <Measured Endpoint>
kon

>  <Val>
970000

$$$$
>  <Binder>
M468 (antibody, V domains shown, anti-IL-13, human IgG1) VH: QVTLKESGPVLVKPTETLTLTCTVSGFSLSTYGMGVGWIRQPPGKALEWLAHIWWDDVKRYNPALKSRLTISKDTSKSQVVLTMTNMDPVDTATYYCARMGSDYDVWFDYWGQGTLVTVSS VL: EIVLTQSPATLSLSPGERATLSCRASKSISKYLAWYQQKPGQAPRLLIYSGSTLQSGIPARFSGSGSGTDFTLTISSLEPEDFAVYYCQQHFWGPYTFGQGTKLEIK

>  <Measured Endpoint>
kon

>  <Val>
1.06e+06

$$$$
>  <Binder>
M465 (antibody, V domains shown, anti-IL-13, human IgG1) VH: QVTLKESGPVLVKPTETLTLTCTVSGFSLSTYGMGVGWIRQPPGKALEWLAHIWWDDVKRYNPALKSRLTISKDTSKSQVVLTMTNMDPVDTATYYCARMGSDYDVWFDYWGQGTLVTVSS VL: EIVLTQSPATLSLSPGERATLSCRASKSISKYLAWYQQKPGQAPRLLIYSGSTLQSGIPARFSGSGSGTDFTLTISSLEPEDFAVYYCQQHDNSPYTFGQGTKLEIK

>  <Measured Endpoint>
kon

>  <Val>
1.1e+06

$$$$
>  <Binder>
M470 (antibody, V domains shown, anti-IL-13, human IgG1) VH: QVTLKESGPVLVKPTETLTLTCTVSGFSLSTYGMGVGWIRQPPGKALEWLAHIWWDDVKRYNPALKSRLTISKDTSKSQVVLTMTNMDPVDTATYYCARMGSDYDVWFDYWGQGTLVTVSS VL: EIVLTQSPATLSLSPGERATLSCRASKSISKYLAWYQQKPGQAPRLLIYSGSTLQSGIPARFSGSGSGTDFTLTISSLEPEDFAVYYCQQHLDSPYTFGQGTKLEIK

>  <Measured Endpoint>
kon

>  <Val>
1.3e+06

$$$$

Now for another entry.
Exam item: Quick one: kon of M460 (anti-IL-13) (antibody, V domains shown) VH: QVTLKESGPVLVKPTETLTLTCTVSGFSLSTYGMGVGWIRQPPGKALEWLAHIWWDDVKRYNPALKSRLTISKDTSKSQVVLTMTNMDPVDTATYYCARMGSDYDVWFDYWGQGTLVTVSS VL: EIVLTQSPATLSLSPGERATLSCRASKSISKYLAWYQQKPGQAPRLLIYSGSTLQSGIPARFSGSGSGTDFTLTISSLEPEDFAVYYCQQHDYPYTFGQGTKLEIK ?
Marked response: 1.03e+06
